Test system: PC-3
Test protocol: Cytotoxicity against human PC3 cells after 3 days by SRB assay
Assay type: functional, cell-based
Experimental setup: PC-3, 72 h
Assay endpoint: EC50 (µg/mL)
Record the value in µg/mL, omitting the unit from your answer.

Input: Reported EC50, compound "O=C(/C=C/c1ccccc1)c1ccc(O)c(CN2CCOCC2)c1" : ____
Output: 0.18

Input: Reported EC50, compound "COc1ccc(/C=C/C(=O)c2cccc(C)c2)c(CN2CCOCC2)c1O" : ____
Output: 0.66

Input: Reported EC50, compound "O=C(/C=C/c1ccco1)c1ccc(O)c(CN2CCOCC2)c1" : ____
Output: 7.43
